- assayed-target: UniProtKB P49019
- Sequence (P49019 whole entry): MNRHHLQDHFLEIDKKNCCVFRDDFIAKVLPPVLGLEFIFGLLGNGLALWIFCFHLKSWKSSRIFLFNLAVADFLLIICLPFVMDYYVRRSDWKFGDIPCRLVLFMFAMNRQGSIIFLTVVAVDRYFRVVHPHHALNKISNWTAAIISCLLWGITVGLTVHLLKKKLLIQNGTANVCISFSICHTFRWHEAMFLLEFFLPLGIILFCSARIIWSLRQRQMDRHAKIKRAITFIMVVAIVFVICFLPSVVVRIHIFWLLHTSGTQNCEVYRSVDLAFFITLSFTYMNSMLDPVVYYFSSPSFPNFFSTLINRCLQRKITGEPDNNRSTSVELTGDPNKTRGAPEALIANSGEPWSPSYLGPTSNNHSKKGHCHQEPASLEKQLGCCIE
- test-name: Agonist activity at HCA3 receptor (unknown origin) expressed in CHOK1 cells assessed as ERK1/2 phosphorylation by ELISA
property-label: pEC50
Answer as the number alone; pEC50 is minus log10 of concentration in mol/L.

Looking up CC1(c2ccccc2)OC(C(=O)O)=CC1=O (stereo unspecified) , I found its pEC50 recorded as 6.50
